The following sequences are listed with their measured apparent Kd values.
# Test system: MS2 coat protein
# protocol: apparent Kd, MS2 coat protein; higher = weaker binding; RNA-MaP array; FMN 200 µM where present
# studyConditions: ligand present: flavin mononucleotide; designed as: ON switch for flavin mononucleotide

[
  {
    "itemSequence": "GAAGCACACAUUAACAUGAGGAUCACCCAUGUCAAAAGACGUGAGGAUAUGGAUCUGAAGAAGAUCCAGAAGGCACUGUGCUAA",
    "apparent Kd": "6 nM"
  },
  {
    "itemSequence": "UGGUACUAGGGAGGAUAUGGGAAGUUACAUGAGGAUCACCCAUGUUUAAGAAUGCCGAGAGGCAACUAGAAGGCCCUAGUACCU",
    "apparent Kd": "6.24 nM"
  },
  {
    "itemSequence": "AUUUAGUGCGAGAAGGCGUGGUCACAUGAGGAUCACCCAUGUCAGUACACGAGGAUAUCGAUCCGCUAUGUAAAUAUAUGCGGC",
    "apparent Kd": "7.51 nM"
  },
  {
    "itemSequence": "CCGGGACAUGAGGAUCACCCAUGUUUCGUUUGUAGUAAAACACAGGAUAUGAUGAAACAGGUUUCUCAGAAGGGUGUUCCGAAA",
    "apparent Kd": "55.3 nM"
  },
  {
    "itemSequence": "GGAGCCGGUACUGAGGAUAUUCAUAUUAAAACAUGAGGAUCACCCAUGUGGGCCAGAAGGCCUUGGGAGAAGGCAGACCAGCUCG",
    "apparent Kd": "22.1 nM"
  },
  {
    "itemSequence": "ACAUGAGGAUCACCCAUGUUGAAUUAGGAUAUUUGACUGCACAUGAGGUUCACCCAUGUUCUACCGGAGAAGGGAUUAAUAAUU",
    "apparent Kd": "132 nM"
  },
  {
    "itemSequence": "GGUACACAUGAGGAUCACCCAUGUCGUAUGACAUGAGGAUAUGUACAGACUUCGGUCUGUACAGAAGGCAUGUGUC",
    "apparent Kd": "445 nM"
  }
]

----------
# Test system: MS2 coat protein
# protocol: apparent Kd, MS2 coat protein; higher = weaker binding; RNA-MaP array; FMN 200 µM where present
# studyConditions: designed as: ON switch for flavin mononucleotide; no ligand
The following sequences are listed with their measured apparent Kd values.

[
  {
    "itemSequence": "UUUACAUGAGGAUCACCCAUGUCUUGCAAGAUGAGUUCUGGUGAGGAUAUACAUGGUAAAGAACUGUAGAAGGCACUGGGUACA",
    "testedOn": "MS2 coat protein",
    "apparent Kd (nM)": 432
  },
  {
    "itemSequence": "GGCUGCGAUGUGAAGGAUAUCCGCGUCUGGACAUGAGGAUCACCCAUGUAUGCUUGGAUCAUGCCGGAGAAGGUCACGAAUGAUU",
    "testedOn": "MS2 coat protein",
    "apparent Kd (nM)": 38
  },
  {
    "itemSequence": "AAAAAACAUGAGGAUCACCCAUGUAAAAAAAUGGGAGGAUAUACAAAAACGAAAGUCAAAGUAGAAGGCCUGAAAA",
    "testedOn": "MS2 coat protein",
    "apparent Kd (nM)": 119
  },
  {
    "itemSequence": "CCGAUUAGCACAGGAUAUGGGAACUCGUAAUUCCCAGAAGGGUGAGCCAAUACAUGAGGAUCACCCAUGUGCGGUAGGUCGGGA",
    "testedOn": "MS2 coat protein",
    "apparent Kd (nM)": 40.5
  },
  {
    "itemSequence": "UGGUACAUCAUAGGAUAUCGUGUGUAAACAUGAGGAUCACCCAUGUCAUACGAGAGUAUGUCGAUCGAGAAGGGUGAUGUACCU",
    "testedOn": "MS2 coat protein",
    "apparent Kd (nM)": 75.2
  },
  {
    "itemSequence": "GGACGACACAUCUACAUGAGGAUCACCCAUGUCAAAAGACAUGAGGAUAUGCUACCUAAUUGGUAGCAGAAGGCAUGGUCGUCC",
    "testedOn": "MS2 coat protein",
    "apparent Kd (nM)": 1370
  },
  {
    "itemSequence": "GAGUUUACGUUUGACACUUAGCGAGAGGAUAUGGAAAACAAGACAUGAGGAUCACCCAUGUACUAUCAGAAGGCUCGAGUACGA",
    "testedOn": "MS2 coat protein",
    "apparent Kd (nM)": 8.92
  }
]

----------
# Tested on: MS2 coat protein
# protocol: apparent Kd, MS2 coat protein; higher = weaker binding; RNA-MaP array; FMN 200 µM where present
# studyConditions: designed as: OFF switch for flavin mononucleotide; no ligand

[
  {
    "itemSequence": "GUUUGAUGAGGAUAUCGAGGUUAGUACAUGAGGAUCACCCAUGUUAUCCAGGUGUCGGUUCGAGAAGGUAUUGGAC",
    "apparent Kd / nM": 18.4
  },
  {
    "itemSequence": "CUGAGCUGAGGAUAUACAUGAGGAUCACCCAUGUGUUAGAGCUUGCGUACAGGCAGAUGUAGAAGGCAGUUCGG",
    "apparent Kd / nM": 17.4
  },
  {
    "itemSequence": "GGUUUGGGAGGAUAUGGCUUGUUUGACAUGAGGAUCACCCAUGUAAGUGGAUCUUCCGGGCCAGAAGGCUCGGGCC",
    "apparent Kd / nM": 104
  },
  {
    "itemSequence": "AACAGGACAGGAUAUACAUGAGGAUCACCCAUGUGAGAAUUAAGUAGAUUACCACAAAGUAGAAGGGUCCUGGA",
    "apparent Kd / nM": 50.4
  }
]

----------
# Tested on: MS2 coat protein
# protocol: apparent Kd, MS2 coat protein; higher = weaker binding; RNA-MaP array
# studyConditions: designed as: OFF switch for tryptophan; no ligand
reportedEndpoint: apparent Kd (nM)

[
  {
    "itemSequence": "CCCGUAAAGGCGGCCGCCACUGUAUGACAUGAGGAUCACCCAUGUAGGGAAAAUGCGAUGGUCGUCAGGACCGGGCCUCUGGCAU",
    "unitSpec": "nM",
    "readoutNumber": 23.1
  },
  {
    "itemSequence": "GUGAAGUUAGUGAGCGUUAGUCAAGCCAAACGAGGACCGGUACGGCCGCCACUCGCGCAUCGACAUGAGGAUCACCCAUGUGCCG",
    "unitSpec": "nM",
    "readoutNumber": 14.6
  },
  {
    "itemSequence": "GGCCAGGCAGCGGCCGCCACUUAGUGGGCCGAAUGUCCUUUGCUGAACAUGAGGAUCACCCAUGUAAGGACCGGGCUGUUCCGCA",
    "unitSpec": "nM",
    "readoutNumber": 30.5
  },
  {
    "itemSequence": "CGAUGCGCAUUAUCCCACUGGUAUGAGUCUCGAGGACCGGUACGGCCGCCACUCGCUACCGUACAUGAGGAUCACCCAUGUAUUA",
    "unitSpec": "nM",
    "readoutNumber": 28
  }
]

----------
# System: MS2 coat protein
# protocol: apparent Kd, MS2 coat protein; higher = weaker binding; RNA-MaP array
# studyConditions: designed as: ON switch for flavin mononucleotide; no ligand

[
  {
    "itemSequence": "CUCAGUGUGUAGAAGGUUUGCAUAGAAACAUCAAAAGGAUAUACAUGGUGAAGCCUUGAAACAUGAGGAUCACCCAUGUCUACG",
    "unitSpec": "nM",
    "apparent Kd": 632
  },
  {
    "itemSequence": "CACGAGAACACUCAGGAUAUGACAAACAAGACAUGAGGAUCACCCAUGUGAAAUUACGGGUGCAAACAGAAGGGAGAAACUUACAC",
    "unitSpec": "nM",
    "apparent Kd": 48.6
  },
  {
    "itemSequence": "GAGGAGUAGUAGUCCGACACAUGAGGAUCACCCAUGUUAUGGAGAAGGCCGGAUCUGAGUAGAGCGGAGGAUAUCCUGAAUUAA",
    "unitSpec": "nM",
    "apparent Kd": 26.7
  },
  {
    "itemSequence": "AUUUCAUGUGUAGGAUAUCGCAUUCAGAACUAGCCAUCCACAUGAGGAUCACCCAUGUGUGCGGGCGAGAAGGACACGAGGGCA",
    "unitSpec": "nM",
    "apparent Kd": 9.72
  },
  {
    "itemSequence": "GUAGUGCUAAGAGGAUAUACGUUCUGCACAUGAGGAUCACCCAUGUACAAGGAGCCCAACCGGCGGUAGAAGGCUUUGACAGGA",
    "unitSpec": "nM",
    "apparent Kd": 17.4
  },
  {
    "itemSequence": "CGUUAAGAACAGAAGGCCGAGAUAAUGUUCAGCGGAGGAUAUGUGGAAGAUAGAACAUGAGGAUCACCCAUGUCAACUAGUACC",
    "unitSpec": "nM",
    "apparent Kd": 6.01
  },
  {
    "itemSequence": "CCAAUAUCUAUAGGAUAUCAAUGACCAAACUGAACAUGAGGAUCACCCAUGUAGUGAGUGACUUAUGAGAAGGAUAGACGUACC",
    "unitSpec": "nM",
    "apparent Kd": 104
  },
  {
    "itemSequence": "GGCGCUACGCCGGUACAUGAGGAUCACCCAUGUCCAUAUGUAAGAAGGUCUGGCGGGACGACAAAGAAGGAUAUUACAGAUUGC",
    "unitSpec": "nM",
    "apparent Kd": 33.7
  }
]
